tested on: HL-60(TB) leukemia; experiment: NCI-60 one-dose screen, 48 h (100 = growth as untreated, 0 = no growth, -100 = all killed); settings: 10 µM unless noted
About 83,000 compounds went through this panel and 20% of them were active in at least one assay; those are over-represented in the sample as a whole.
experimentalReadout: growth (%)
A number alone suffices; assume %.

CCOC(=O)c1cc2c(n1Cc1cc(OC)c(OC)c(OC)c1)-c1oncc1CCC2 : -8.69
O=C1/C(=C/c2ccc(Cl)cc2)CN(C(=O)CCN2CCC(=NO)CC2)C/C1=C\c1ccc(Cl)cc1 : -13
O=C1/C(=C\c2cn(CC(O)CN3CCCCC3)c3ccccc23)c2ccccc2N1c1c(Cl)cccc1Cl (stereo not given) : -36.5

Challenge: Which growth value belongs to CCOC(=O)Sc1ncnc2nc[nH]c12 ?
Response given: 2.99

Challenge: Param item = CCN(CC)CCCCCNc1cc(OC(=O)c2ccc(Cl)cc2)cc2cccnc12 ; retrieve measured growth.
Response given: 6.96
